System: YT (IL-2 2.5 ng/mL)
test.method.notes: percent inhibition of viability; higher = more inhibition;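 note: normalised to DMSO-only wells as negative and benzethonium chloride as positive control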
assay.context: 72 h; 100 nM
Mark Criterion met for percent inhibition of viability under 10%, Criterion not met if at or over.

| molecule | label.class |
| --- | --- |
| Nc1nc(N)c2nc(-c3cccc(O)c3)c(-c3cccc(O)c3)nc2n1 [TG100-115] (max concentration tested 10000 nM) | Criterion met |
| Cc1ccc(-c2cc(C(F)(F)F)nn2-c2ccc(S(N)(=O)=O)cc2)cc1 [Celecoxib] (max concentration tested 10000 nM) | Criterion not met |
| CC(=O)O[C@@]12CO[C@@H]1C[C@H](O)[C@@]1(C)C(=O)[C@H](O)C3=C(C)[C@@H](OC(=O)[C@H](O)[C@@H](NC(=O)OC(C)(C)C)c4ccccc4)C[C@@](O)([C@@H](OC(=O)c4ccccc4)[C@H]21)C3(C)C [Docetaxel] (max concentration tested 1000 nM) | Criterion not met |
| O=c1[nH]cc(F)c(=O)[nH]1 [Fluorouracil] (max concentration tested 10000 nM) | Criterion met |

We next turn to a different molecule, shown below.
[in] Just wondering, is percent inhibition of viability of NC(=O)N1CCC(CC(=O)N2CCC([C@H]3c4ncc(Br)cc4CCc4cc(Cl)cc(Br)c43)CC2)CC1 [Lonafarnib] (max concentration tested 10000 nM) below 10%?
[out] Criterion met
